Listing of entries alongside the reported pIC50.
Biological target: myeloperoxidase (Homo sapiens, UniProt P05164)
Sequence (P05164 49-745): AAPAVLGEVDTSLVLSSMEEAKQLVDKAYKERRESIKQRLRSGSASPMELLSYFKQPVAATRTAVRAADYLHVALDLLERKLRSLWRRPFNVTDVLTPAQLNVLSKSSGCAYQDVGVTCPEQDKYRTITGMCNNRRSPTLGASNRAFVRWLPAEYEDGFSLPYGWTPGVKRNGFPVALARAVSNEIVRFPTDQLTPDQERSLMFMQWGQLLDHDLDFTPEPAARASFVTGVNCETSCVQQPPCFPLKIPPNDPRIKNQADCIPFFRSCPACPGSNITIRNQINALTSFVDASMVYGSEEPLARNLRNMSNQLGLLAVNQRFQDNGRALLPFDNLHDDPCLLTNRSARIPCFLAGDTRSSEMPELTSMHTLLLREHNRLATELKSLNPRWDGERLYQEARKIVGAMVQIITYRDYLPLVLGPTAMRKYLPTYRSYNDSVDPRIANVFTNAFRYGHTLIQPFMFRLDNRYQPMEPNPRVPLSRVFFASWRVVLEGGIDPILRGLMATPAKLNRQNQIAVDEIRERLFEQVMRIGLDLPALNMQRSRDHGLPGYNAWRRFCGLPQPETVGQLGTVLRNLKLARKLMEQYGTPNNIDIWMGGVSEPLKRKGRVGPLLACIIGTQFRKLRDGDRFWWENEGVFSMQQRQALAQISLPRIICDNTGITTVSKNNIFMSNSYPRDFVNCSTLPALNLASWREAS
Assay: MPO Chlorination Assay (APF Assay)
Type: biochemical
Details: potency range class, read-out: APF Assay IC50 value
pIC50: −log10 of the molar value.
measurement_name: pIC50

> print(dat)
                                   compound  observed.measurement
1  N#Cc1ccccc1C(CCN[C@H]1CC[C@H](c2ccccc2)CC1)c1cc(N)nc2[nH]nnc12 (stereo partly shown) [Example 161]          6.00 to 7.00
2  NC(=O)c1ccc(C2CCC(NCCC(c3ccccc3)c3cc(N)nc4[nH]nnc34)CC2)cc1 (stereo not shown) [Example 118]          6.00 to 7.00
3  Nc1cc(C(CCN[C@@H]2C[C@H](c3ccccc3)Cc3ccccc32)c2ccccc2)c2nn[nH]c2n1 (stereo partly shown) [Example 83]          7.00 to 9.00
4  CC1(C)C[C@@H](NCCC(c2ccccc2)c2cc(N)nc3[nH]nnc23)c2ccccc21 (stereo partly shown) [Example 85]          7.00 to 9.00

----------
Target: myeloperoxidase (Homo sapiens, UniProt P05164)
Test: MPO Peroxidation Assay (Amplex Red Assay)
Assay type: biochemical
Conditions: potency range class, read-out: Amplex Red Assay IC50 value
Listing of entries alongside the reported IC50.
measurement_name: IC50

> print(dat)
                                   compound  measurement.name  observed.measurement
1  Nc1cc([C@H](Cc2nc3c(-c4ccc(Cl)cc4)cccc3[nH]2)c2ccccc2)c2nn[nH]c2n1 [Example 253]              IC50      1000 to 10000 nM
2  Nc1cc(C(CCCN2CCC(c3ccccc3)C2)c2ccccc2)c2nn[nH]c2n1 (stereo not shown) [Example 209]              IC50         101 to 999 nM
3  Nc1cc([C@H](CCN(CC2CCCO2)C23CCC(c4ccccc4)(CC2)CC3)c2ccccc2)c2nn[nH]c2n1 (stereo partly shown) [Example 195]              IC50         101 to 999 nM
4  Nc1cc(C(CCNC2CCCc3ccccc32)c2ccccc2)c2nn[nH]c2n1 (stereo not shown) [Example 29]              IC50           1 to 100 nM

----------
Target: UniProt P05164
Test: MPO Chlorination Assay (APF Assay)
Format: biochemical
Conditions: potency range class, read-out: APF Assay IC50 value
pIC50: −log10 of the molar value.
measurement_name: pIC50

> print(dat)
                                   compound  measurement.name  observed.measurement
1  Nc1cc(C(CCNC2c3ccccc3CC2c2ccccc2)c2ccccc2)c2nn[nH]c2n1 (stereo not shown) [Example 56]             pIC50          7.00 to 9.00
2  CNC(=O)CN(CC[C@H](c1ccccc1)c1cc(N)nc2[nH]nnc12)C12CCC(c3ccccc3)(CC1)CC2             pIC50          7.00 to 9.00
3  Nc1cc([C@H](CCN(CC(O)C(F)(F)F)C23CCC(c4ccccc4)(CC2)CC3)c2ccccc2)c2nn[nH]c2n1 (stereo partly shown)             pIC50          7.00 to 9.00
4  Nc1cc(C(CCCN2CCC3(CC2)OCc2ccccc23)c2ccccc2)c2nn[nH]c2n1 (stereo not shown)             pIC50          7.00 to 9.00
5  NCc1cccc(C(CCNC23CCC(c4ccccc4)(CC2)CC3)c2cc(N)nc3[nH]nnc23)c1 (stereo not shown)             pIC50          7.00 to 9.00
6  NCc1ccc(C(CCN[C@H]2CC[C@H](c3ccccc3)CC2)c2cc(N)nc3[nH]nnc23)cc1 (stereo partly shown)             pIC50          5.00 to 6.00
7  CC1(NCCC(c2ccccc2)c2cc(N)nc3[nH]nnc23)CCc2ccccc21 (stereo not shown)             pIC50          6.00 to 7.00
